system: p21 transcripts in SJSA-1 cells; experiment: p21 assay (QRT-PCR of p21 transcripts in SJSA-1 cells); assay type: cell-based, human; conditions: Homo sapiens, SJSA-1, 7 h, cell assay (SJSA-1 cell); p21 induction, 7 hours incubation
Measure: IC50

The following compounds have reported results that may help.
[
  {
    "Compound": "CC(C)[C@@H](CS(=N)(=O)C(C)C)N1C(=O)[C@@](C)(CC(=O)N[C@H]2CC[C@H](O)CC2)C[C@H](c2cccc(Cl)c2)[C@H]1c1ccc(Cl)cc1 (some centres unmarked)",
    "Recorded Result": "1000 to 10000 nM"
  },
  {
    "Compound": "CC(C)[C@@H](CS(=N)(=O)C(C)C)N1C(=O)[C@@](C)(CC(=O)Nc2cccc(C(F)(F)F)c2)C[C@H](c2cccc(Cl)c2)[C@H]1c1ccc(Cl)cc1 (some centres unmarked)",
    "Recorded Result": "1000 to 10000 nM"
  },
  {
    "Compound": "CC(C)[C@@H](CS(=N)(=O)C(C)C)N1C(=O)[C@@](C)(CC(=O)Nc2ccc(F)c(Br)c2)C[C@H](c2cccc(Cl)c2)[C@H]1c1ccc(Cl)cc1 (some centres unmarked)",
    "Recorded Result": "1000 to 10000 nM"
  },
  {
    "Compound": "CCOC(=O)N=S(=O)(C[C@H](C(C)C)N1C(=O)[C@@](C)(CC(=O)O)C[C@H](c2cccc(Cl)c2)[C@H]1c1ccc(Cl)cc1)C(C)C (some centres unmarked)",
    "Recorded Result": "< 1000 nM"
  },
  {
    "Compound": "CC(C)[C@@H](CS(=O)(=NC(=O)N1CCCC1)C(C)C)N1C(=O)[C@@](C)(CC(=O)O)C[C@H](c2cccc(Cl)c2)[C@H]1c1ccc(Cl)cc1 (some centres unmarked)",
    "Recorded Result": "< 1000 nM"
  },
  {
    "Compound": "CC(C)[C@@H](CS(=O)(=NC(N)=O)C(C)C)N1C(=O)[C@@](C)(CC(=O)O)C[C@H](c2cccc(Cl)c2)[C@H]1c1ccc(Cl)cc1 (some centres unmarked)",
    "Recorded Result": "< 1000 nM"
  },
  {
    "Compound": "CC(=O)N=[S@@](=O)(C[C@H](C(C)C)N1C(=O)[C@@](C)(CC(=O)O)C[C@H](c2cccc(Cl)c2)[C@H]1c1ccc(Cl)cc1)C(C)C",
    "Recorded Result": "< 1000 nM"
  },
  {
    "Compound": "CC(C)[C@@H](CS(=N)(=O)C(C)C)N1C(=O)[C@@](C)(CC(=O)Nc2ccc(F)cc2Br)C[C@H](c2cccc(Cl)c2)[C@H]1c1ccc(Cl)cc1 (some centres unmarked)",
    "Recorded Result": "1000 to 10000 nM"
  },
  {
    "Compound": "CN=S(=O)(C[C@H](C(C)C)N1C(=O)[C@@](C)(CC(=O)O)C[C@H](c2cccc(Cl)c2)[C@H]1c1ccc(Cl)cc1)C(C)C (some centres unmarked)",
    "Recorded Result": "< 1000 nM"
  },
  {
    "Compound": "COc1cc(NC(=O)C[C@@]2(C)C[C@H](c3cccc(Cl)c3)[C@@H](c3ccc(Cl)cc3)N([C@H](CS(=O)(=NC(=O)N(C)C)C(C)C)C(C)C)C2=O)ccc1C(=O)O (some centres unmarked)",
    "Recorded Result": "< 1000 nM"
  }
]

What the record says about CC(C)[C@@H](CS(=O)(=O)C(C)C)N1C(=O)[C@@](C)(CC(=O)NS(=N)(=O)C2CC2)C[C@H](c2cccc(Cl)c2)[C@H]1c1ccc(Cl)cc1 (some centres unmarked) : IC50 is 1000 to 10000 nM

----------
Test system: p21 transcripts in SJSA-1 cells
Assay: p21 assay (QRT-PCR of p21 transcripts in SJSA-1 cells)
Assay type: cell-based, human
Details: Homo sapiens, SJSA-1, 7 h, cell assay (SJSA-1 cell); p21 induction, 7 hours incubation
Description: Inhibition of the interaction between hMDM2 and p53 results in the activation of the p53 pathway via the stabilization and accumulation of p53. P53 activates the transcription of many genes, one of which is p21<WAFT/CIP1>. To evaluate the potency of hMDM2 inhibitors, quantitative reverse transcription polymerase chain reaction (QRT PCR) was used to measure the level of p21 transcripts of compound related cells relative to that of control cells treated with dimethyl sulfoxide (DMSO). […]
Measure: IC50

The following compounds have reported results that may help.
[
  {
    "Compound": "COc1cc(NC(=O)C[C@@]2(C)C[C@H](c3cccc(Cl)c3)[C@@H](c3ccc(Cl)cc3)N([C@H](CS(=O)(=NC(N)=O)C(C)C)C(C)C)C2=O)ccc1C(=O)O (some centres unmarked) [Compound 043]",
    "IC50": "< 1 µM"
  },
  {
    "Compound": "COc1ccc(S(=O)(=O)NC(=O)C[C@@]2(C)C[C@H](c3cccc(Cl)c3)[C@@H](c3ccc(Cl)cc3)N([C@H](CS(=N)(=O)C(C)C)C(C)C)C2=O)cc1 (some centres unmarked) [Compound 023]",
    "IC50": "< 1 µM"
  },
  {
    "Compound": "CC(C)[C@@H](CS(=N)(=O)C(C)C)N1C(=O)[C@@](C)(CC(=O)O)C[C@H](c2cccc(Cl)c2)[C@H]1c1ccc(Cl)cc1 (some centres unmarked) [Compound 001]",
    "IC50": "< 1 µM"
  },
  {
    "Compound": "COc1cc(C(=O)O)ccc1NC(=O)C[C@@]1(C)C[C@H](c2cccc(Cl)c2)[C@@H](c2ccc(Cl)cc2)N([C@H](CS(=N)(=O)C(C)C)C(C)C)C1=O (some centres unmarked) [Compound 009]",
    "IC50": "1 to 10 µM"
  }
]

What the record says about COc1cc(NC(=O)C[C@@]2(C)C[C@H](c3cccc(Cl)c3)[C@@H](c3ccc(Cl)cc3)N([C@H](CS(=O)(=NC(=O)N3CCOCC3)C(C)C)C(C)C)C2=O)ccc1C(=O)O (some centres unmarked) [Compound 050] : IC50 is < 1 µM

----------
As shown below, each of these compounds has a reported pIC50 value.
target: GST-hMDM2 (aa1-188) (Homo sapiens, UniProt Q00987); construct: The amino acid residues 1-188 of human MDM2 were expressed as GST-hMDM2 fusion protein; assay: Homogeneous time resolved fluorometry (HTRF assay), hMDM2/p53 interaction; settings: HTRF analysis; GST-hMDM2 (aa1-188) / biotinylated-p53 (aa1-83)
Sequence (Q00987 1-188): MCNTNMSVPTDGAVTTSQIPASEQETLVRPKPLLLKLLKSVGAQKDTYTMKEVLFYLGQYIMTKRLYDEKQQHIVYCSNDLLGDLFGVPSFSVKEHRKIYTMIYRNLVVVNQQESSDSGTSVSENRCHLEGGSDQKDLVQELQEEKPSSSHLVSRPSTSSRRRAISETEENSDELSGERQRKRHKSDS
pIC50: −log10 of the molar value.

The following compounds have reported results that may help.
[
  {
    "Compound": "COc1cc(NC(=O)C[C@@]2(C)C[C@H](c3cccc(Cl)c3)[C@@H](c3ccc(Cl)cc3)N([C@H](C[S@](=O)(=NC(C)=O)C(C)C)C(C)C)C2=O)ccc1C(=O)O",
    "pIC50": "> 8.00"
  },
  {
    "Compound": "CC(C)[C@@H](CS(=O)(=NC#N)C(C)C)N1C(=O)[C@@](C)(CC(=O)O)C[C@H](c2cccc(Cl)c2)[C@H]1c1ccc(Cl)cc1 (single isomer, unassigned)",
    "pIC50": "> 8.00"
  },
  {
    "Compound": "COc1cc(NC(=O)C[C@@]2(C)C[C@H](c3cccc(Cl)c3)[C@@H](c3ccc(Cl)cc3)N([C@H](CS(=O)(=NC(=O)N3CCOCC3)C(C)C)C(C)C)C2=O)ccc1C(=O)O (some centres unmarked)",
    "pIC50": "> 8.00"
  }
]

What the record says about CC(C)[C@@H](CS(=N)(=O)C(C)C)N1C(=O)[C@@](C)(CC(=O)NS(=O)(=O)c2ccc(C#N)cc2)C[C@H](c2cccc(Cl)c2)[C@H]1c1ccc(Cl)cc1 (some centres unmarked) : pIC50 is 7.00 to 8.00

What the record says about CC(C)[C@@H](CS(=N)(=O)C(C)C)N1C(=O)[C@@](C)(CC(=O)NC23CCC(C(=O)O)(CC2)CC3)C[C@H](c2cccc(Cl)c2)[C@H]1c1ccc(Cl)cc1 (some centres unmarked) : pIC50 is 7.00 to 8.00

----------
system: p21 transcripts in SJSA-1 cells; test: p21 assay (QRT-PCR of p21 transcripts in SJSA-1 cells); assay type: cell-based, human; settings: cell assay (SJSA-1 cell); p21 induction, 7 hours incubation
Measure: IC50

[
  {
    "Compound": "CC(C)[C@@H](CS(=O)(=O)C(C)C)N1C(=O)[C@@](C)(CC(=O)NS(=N)(=O)C2(C)CC2)C[C@H](c2cccc(Cl)c2)[C@H]1c1ccc(Cl)cc1 (some centres unmarked) [Compound 028B]",
    "Target Or Test System": "p21 transcripts in SJSA-1 cells",
    "IC50": "1000 to 10000 nM"
  }
]

Continue with the compound presented below.
The reported p21 transcripts in SJSA-1 cells IC50 of CC(C)[C@@H](CS(=N)(=O)C(C)C)N1C(=O)[C@@](C)(CC(=O)O)C[C@H](c2cccc(Cl)c2)[C@H]1c1ccc(Cl)cc1 (some centres unmarked) [Compound 002] is < 1000 nM
